The origin of these recorded values is paper PMC8880564.

Test system: SK-MEL-2
assay-method-text: NCI-60 one-dose SRB screening
Type: cell-based
conditions: Homo sapiens, SK-MEL-2, Melanoma, 10 µM one dose, 48 h, read-out: growth percentage
So I've got a bunch of compounds here, and I need their activity at 10 µM values.
Give bare numbers, in %.

Cc1nn(-c2ccccc2)c2nc(CNc3ccc(NCc4c(-c5ccccc5)no[n+]4[O-])cc3)[nH]c(=O)c12 [14b] = 100
Cc1nc(Nc2ccc(OCc3c(-c4ccccc4)no[n+]3[O-])cc2)c2cnn(-c3ccc(Br)cc3)c2n1 = 114
[O-][n+]1onc(-c2ccccc2)c1COc1ccc(Nc2ncnc3c2cnn3-c2ccc(Br)cc2)cc1 = 99.2

In the following, a different compound is considered.
In plain terms, Cc1nn(-c2ccccc2)c2nc(CCl)[nH]c(=O)c12 [13b] has a documented activity at 10 µM of 97.9
